Molecular target: T1, N-terminally His6-tagged human PCNA (proliferating cell nuclear antigen) (human, UniProt P12004 1-261)
T1 construct: Proliferating cell nuclear antigen, human; The tag is used for capture in SPR; source: E. coli BL21(DE3), purified (Ni-NTA, SEC)
T1 sequence (P12004 whole entry): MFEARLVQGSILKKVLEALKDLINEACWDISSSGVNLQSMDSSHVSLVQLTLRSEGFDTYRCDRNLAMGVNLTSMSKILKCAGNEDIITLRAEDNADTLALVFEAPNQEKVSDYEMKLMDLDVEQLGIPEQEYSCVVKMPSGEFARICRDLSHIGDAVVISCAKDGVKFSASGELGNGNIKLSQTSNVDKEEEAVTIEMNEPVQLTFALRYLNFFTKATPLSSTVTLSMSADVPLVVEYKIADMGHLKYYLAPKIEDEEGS
Assay: SPR; Biacore T200, single-cycle; His6-PCNA captured by anti-His antibody coupled to a CM5 chip, peptides injected (five twofold dilutions); 10 mM HEPES, 150 mM NaCl, 0.05% P20, pH 7.4; 25 °C; kinetic fit for p21, steady-state fit for the other peptides
Conditions: both partners purified
ASSAY METRIC: pKd
Notebook: values listed as pKd are -log10 of the concentration (mol/L).

pKd measured on Ac-RQSTLYSFFPKSPAL-NH2 (DNA mismatch repair protein MSH6, human, canonical PIP-box at the very N-terminus; source: peptide, > 95% purity) [MSH6 peptide (Ac-RQSTLYSFFPKSPAL-NH2)] = 5.52
